assay: Toxicity liver stage against HepG2, at 10uM
Assay type: cell-based
Parameters: test concentration 10 uM, cell line HepG2-A16-CD81EGFP
conditions: human, HepG2-A16-CD81EGFP cells; read-out: INHIBITION
property.label: cytotoxicity at 10 µM (%)

INSERT INTO results (molecule, measured_value) VALUES
  ('CNc1ncc(CN(C)Cc2cc(O)c3cccc(Cl)c3n2)cn1', 7.05),
  ('CCOCC1CC2(CCN(C(=O)c3ccc4ccccc4n3)CC2)CO1 (configuration not stated)', 3.79),
  ('Cc1ncccc1C(=O)Nc1cccc2c1C(=O)NC2', 1.85),
  ('O=C(CN1CCCC1Cn1cccn1)NCCOc1cccc(F)c1 (configuration not stated)', -3.54),
  ('Cc1cnc(N2C[C@@H]3[C@@H](C2)OCC(=O)N3CC2CC2)nc1', -0.357),
  ('COc1cc(C(=O)N(C)Cc2cc(C(=O)O)c(C)o2)cc(OC)c1OC', -1.76),
  ('CC(C)(C)NC(=O)CN1CCCN(c2ccc(C#N)cn2)CC1', -4.31),
  ('CC(=O)N(C)Cc1cccc(NC(=O)N(C)Cc2nccs2)c1', -6.77),
  ('Cc1cccc(OCc2ccc(C(=O)N3N=CCC3(O)C(F)(F)F)o2)c1 (configuration not stated)', 25.2),
  ('CCOCC1CN(Cc2csc(C)n2)Cc2nccn2C1 (configuration not stated)', 5.98),
  ('COc1cccc(CNCc2ccc(NC(=O)NC(C)C)cc2)c1', -11.1),
  ('CCc1ccsc1C(=O)N(C)CCc1ccncc1', -0.386),
  ('Cc1nc(CN(C)C2CCN(CC3CCCCC3)C2)no1 (configuration not stated)', -7.49),
  ('O=C(c1ccc(-c2cnco2)cc1)N1CCC(Nc2cccnn2)CC1', -0.692),
  ('C[C@@H]1CN(CCC(=O)NCc2ccccc2Cl)C[C@@]1(O)C1CC1', 2.75),
  ('CCn1cc(CN2CCC(c3ncc(Cl)cc3S(C)(=O)=O)CC2)c(C)n1', 5.68),
  ('Fc1ccc(-c2nnc(CN3CCCC3Cn3cncn3)o2)cc1 (configuration not stated)', -10.5),
  ('CCCN(CCc1cccc(F)c1)c1ccc2nnnn2n1', 1.44),
  ('Clc1ccc(CN(CCN2CCOCC2)Cc2cccnc2)c(Cl)c1', -4.25),
  ('CCC(=O)N1Cc2nccn2CC(CN(C)Cc2cccnc2)C1 (configuration not stated)', 3.55),
  ('CN1CCC(N2CCC(c3ccccc3C(=O)O)C2)CC1 (configuration not stated)', -1.05),
  ('COCCn1cnnc1CCn1ccnc1-c1ccccc1Cl', -8.25),
  ('COc1cc(C2CC(=O)Nc3c2c(=O)[nH]n3C2CCCCC2)ccc1O (configuration not stated)', -0.607),
  ('COc1ccc(C(C)(C)C)cc1CN1CCn2c(CO)nnc2C1', 10.4),
  ('O=C(NCc1nn(-c2ccccc2)c2c1CCC2)NC1CCC(O)CC1 (configuration not stated)', -7.75),
  ('CCCS(=O)(=O)c1ccc(N2CCN(c3ccccn3)CC2)nn1', -82.5),
  ('CC(C)c1cc(NC(=O)CNC2CCc3ncnn3C2)on1 (configuration not stated)', 4.44),
  ('CC(C)OCC(=O)N1CCCN(Cc2ccc(C#N)cc2)CC1', -7.41),
  ('CSc1cccc(CN2CCC(CCC(=O)Nc3ccccc3)CC2)c1', -2.48),
  ('CCN1CCO[C@@H]2CN(C(=O)COC3CCCC3)C[C@@H]2C1', 4.32),
  ('CN(C)c1cc(C(=O)N2CCCCC2Cn2cccn2)ccn1 (configuration not stated)', -23),
  ('CO[C@H]1CN(S(=O)(=O)c2ccc(F)cc2)C[C@@]12CCCO2', 13.2),
  ('Cc1ccc(-c2cccc(-c3ccn(CCN4CCCC4)n3)c2)nn1', -8.74),
  ('Nc1cc(N2CCC(c3cc(Cc4ccccc4)n[nH]3)CC2)ccn1', 24.6),
  ('Cc1nc(-c2cccnc2)ncc1C(=O)N1CCC(c2ncc[nH]2)CC1', 0.626),
  ('Cc1nn(C)c(C)c1CN(C)c1nc(C2CCCC2)nc2c1cnn2C', 27.9),
  ('O=C(N1CCCC1)N1CCC2(CCCN(CCOc3ccccc3)C2)C1 (configuration not stated)', 11.3),
  ('Cc1ncsc1CN1C[C@@H]2COC[C@]2(CNC(=O)c2ccccc2)C1', -2.39),
  ('Cn1cc(CN2CCS(=O)(=O)C(C)(C)C2)cn1', 0.512),
  ('CN1C(=O)CC(c2cnn(C)c2)C12CCN(C(=O)C1CC=CC1)CC2 (configuration not stated)', 5.84),
  ('COc1nn(C)c2c1CCCN(C(=O)c1cscn1)C2', -97.2),
  ('c1cc(-c2cn[nH]c2)ccc1CN1CCCCC1', 1.58),
  ('COCCNc1nc2c(c(NCCc3cccs3)n1)CCNCC2', 3.96),
  ('Cc1ccc2c(c1)C1(CCN(C(=O)C3CC3)CC1)CC2N1CCOCC1 (configuration not stated)', -128),
  ('Fc1ccc(CNCCn2cccn2)cc1F', -8.01),
  ('CCN(C)C[C@@H]1CN(Cc2cccc(Cl)c2)C[C@@H]1CO', 2.45),
  ('Cc1csc([C@@H]2C[C@@H]3CCN(Cc4cc(C)on4)C[C@H]3O2)n1', -106);
